Attribution: ChEMBL document CHEMBL5104216

- Subject of test: UDP-N-acetylglucosamine 1-carboxyvinyltransferase (Escherichia coli K-12)
- Procedure summary: Inhibition of recombinant Escherichia coli MurA assessed as residual activity at 500 uM using UDP-N-acetylglucosamine as substrate preincubated for 30 mins in presence of 1 mM DTT followed by substrate addition and measured by malachite green based colorimetric assay relative to control
Metric: Activity (%)
Response body: numeric value in %, unit text excluded.

Some molecules with known Activity results, for comparison:
>>> measured_value("N#Cc1cnc(N)s1")
102
>>> measured_value("COC(=O)CC(=O)Nc1ncc(C#N)s1")
112
>>> measured_value("Cc1nnc(N)s1")
99.4
>>> measured_value("Cc1nc(-c2ccc(C(=O)O)cc2)cs1")
101
>>> measured_value("N#Cc1cnc(NC(=O)CC(=O)O)s1")
109

Name the recorded Activity for Cc1nc(Br)sc1C(=O)O .
102

Name the recorded Activity for Cc1cnc(Br)s1 .
105

Name the recorded Activity for COC(=O)c1csc(Br)n1 .
104

Name the recorded Activity for CNc1nnc(C(F)(F)F)s1 .
102

Name the recorded Activity for CC(=O)c1nc(C)cs1 .
93.5
